Origin of the recorded values: patent US20170298113A1

biological target: human somatostatin receptor subtype SSTR2 (human) (UniProt P30874); test: FACS, transfected HEK-293 cells; row normalised to highest
Sequence (P30874 whole entry): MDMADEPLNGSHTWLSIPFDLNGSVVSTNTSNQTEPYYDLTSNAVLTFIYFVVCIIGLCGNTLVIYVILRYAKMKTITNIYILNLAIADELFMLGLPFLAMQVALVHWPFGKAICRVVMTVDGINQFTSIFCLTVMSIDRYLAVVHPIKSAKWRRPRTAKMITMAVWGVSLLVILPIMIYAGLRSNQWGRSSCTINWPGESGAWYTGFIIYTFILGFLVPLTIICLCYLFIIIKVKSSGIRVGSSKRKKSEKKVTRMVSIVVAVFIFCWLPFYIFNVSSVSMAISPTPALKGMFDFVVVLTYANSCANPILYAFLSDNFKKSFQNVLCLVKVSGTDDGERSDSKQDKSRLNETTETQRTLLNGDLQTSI
*1 amine or outer side, *2 acyl side, *3 side chain or, on linkers, in order; H or OH if unused. Bridges are numbered along the chain shown (N, C = ends). Primed or numbered codes have the meaning given here. [ ]: non-standard residue; d: D form. N(2-mercaptoethyl)Gly = O=C(CN(CCS[*:3])[*:1])[*:2]; FITC′ = fluorescein isothiocyanate; Orn = NCCC[C@H](N)C(=O)O; Aib = CC(C)(N)C(=O)O; GABA = NCCCC(=O)O
measured-endpoint: Adjusted binding affinity

Use these answered entries as a reference point.
binder | measured-endpoint | recorded-value
{FITC′-GABA}-[dF]RCY[dW]KTF[N(2-mercaptoethyl)Gly]-NH2 (disulfide 3-9) [Compound 6] | Adjusted binding affinity | 0.07
{FITC′-GABA}-[dF]RCF[dW][Orn]TF[N(2-mercaptoethyl)Gly]-NH2 (disulfide 3-9) [Compound 5] | Adjusted binding affinity | 0.33
{FITC′-GABA}-[dF]CFW[dW][Aib]TF[N(2-mercaptoethyl)Gly]-NH2 (disulfide 2-9) [Compound 13] | Adjusted binding affinity | 0
{FITC′-GABA}-[dF]CFW[dW]RTF[N(2-mercaptoethyl)Gly]-NH2 (disulfide 2-9) [Compound 15] | Adjusted binding affinity | 0.37
XCFWXKTFX (FITC-GABA-DPhe-Cys*-Phe-Trp-DTrp-Lys-Thr-Phe-GlyS2*-NH2 (* = S-S bond; GlyS2 = N-thioethyl glycine; FITC-GABA on the N-terminal amine; C-terminal amide)) [Compound 1] | Adjusted binding affinity | 0.23

I. XCFWXXTFX (FITC-GABA-DPhe-Cys*-Phe-Trp-DTrp-HomoLys-Thr-Phe-GlyS2*-NH2 (* = S-S bond; HomoLys = homolysine; GlyS2 = N-thioethyl glycine; C-terminal amide)) [Compound 16]
II. {FITC′-GABA}-[dF]CYW[dW]KTF[N(2-mercaptoethyl)Gly]-NH2 (disulfide 2-9) [Compound 4]
Request: Among I and II , which shows a numerically higher Adjusted binding affinity result? Record your answer as the label of the chosen record.
Result: II

1. XCFWXXTFX (FITC-GABA-DPhe-Cys*-Phe-Trp-DTrp-Orn-Thr-Phe-GlyS2*-NH2 (* = S-S bond; GlyS2 = N-thioethyl glycine; Orn = ornithine; C-terminal amide)) [Compound 3]
2. {FITC′-GABA}-[dF]CY[dW][Orn]TF[N(2-mercaptoethyl)Gly]-NH2 (disulfide 2-8) [Compound 7]
Request: Among 1 and 2 , which shows a numerically higher Adjusted binding affinity result? Record your answer as the label of the chosen record.
Result: 2

a. {FITC′-GABA}-[dF]RCF[dW]KTF[N(2-mercaptoethyl)Gly]-NH2 (disulfide 3-9) [Compound 2]
b. {FITC′-GABA}-[dF]CRFF[dW]KTF[N(2-mercaptoethyl)Gly]-NH2 (disulfide 2-10) [Compound 8]
Request: Among a and b , which shows a numerically higher Adjusted binding affinity result? Record your answer as the label of the chosen record.
Result: a
